# system: aldose reductase enzyme obtained from calf lens (Bos taurus, UniProt P16116)
# Construct: partially purified aldose reductase enzyme obtained from calf lens; from tissue; host or cells: calf lens
# protocol.description: inhibition of aldose reductase enzyme activity (procedure of S. Hayman et al., modified by K. Sestanj et al.)
# Assay type: biochemical
# measurement.parameters: 10^-6M; partially purified calf lens aldose reductase; read-out: Percent Inhibition (%)
parameter.measured: inhibition at 1 µM (%)
Respond numerically; units are % and should not be typed.

What measured inhibition at 1 µM goes with CC(C)N1C(=O)C2(OC(=O)NC2=O)c2cc(Cl)ccc21 (stereo not shown) [Product of Example 2] ?
45

# inhibition at 1 µM lookup, item CN1C(=O)C2(OC(=O)NC2=O)c2cc(Cl)ccc21 (stereo not shown) [Product of Example 3]
31

Param item = O=C1NC(=O)C2(O1)C(=O)N(Cc1ccc(Cl)cc1)c1ccc(Cl)cc12 (stereo not shown) [Product of Example 4] ; retrieve measured inhibition at 1 µM.
81

Please give the measured inhibition at 1 µM for this molecule: O=C1NC(=O)C2(O1)C(=O)N(c1ccc(F)cc1)c1ccc(F)cc12 (stereo not shown) [Product of Example 1]
65

----------
# system: aldose reductase enzyme obtained from calf lens (Bos taurus, UniProt P16116)
# Construct: partially purified aldose reductase enzyme obtained from calf lens; from tissue; host or cells: calf lens
# protocol.description: inhibition of aldose reductase enzyme activity (procedure of S. Hayman et al., modified by K. Sestanj et al.)
# Assay type: biochemical
# measurement.parameters: 10^-5M; partially purified calf lens aldose reductase; read-out: Percent Inhibition (%)
parameter.measured: inhibition at 10 µM (%)
Only the number, expressed in %, is required.

Which inhibition at 10 µM is reported for this compound? O=C1NC(=O)C2(O1)C(=O)N(Cc1ccc(Cl)cc1)c1ccc(Cl)cc12 (stereo not shown) [Product of Example 4]
89

Given the entry O=C1NC(=O)C2(O1)C(=O)N(c1ccc(F)cc1)c1ccc(F)cc12 (stereo not shown) [Product of Example 1] , report its measured inhibition at 10 µM.
87

# lookup: inhibition at 10 µM of CC(C)N1C(=O)C2(OC(=O)NC2=O)c2cc(Cl)ccc21 (stereo not shown) [Product of Example 2]
80

GET /values?readout=inhibition at 10 µM&item= CN1C(=O)C2(OC(=O)NC2=O)c2cc(Cl)ccc21 (stereo not shown) [Product of Example 3]
67

----------
Please go through the items and note down their inhibition at 0.1 µM.
# system: aldose reductase enzyme obtained from calf lens (Bos taurus, UniProt P16116)
# Construct: partially purified aldose reductase enzyme obtained from calf lens; from tissue; host or cells: calf lens
# protocol.description: inhibition of aldose reductase enzyme activity (procedure of S. Hayman et al., modified by K. Sestanj et al.)
# Type: biochemical
# measurement.parameters: 10^-7M; partially purified calf lens aldose reductase; read-out: Percent Inhibition (%)
Dear colleague, please return just the value in %, with no unit written.

What value of inhibition at 0.1 µM has been recorded for this entry: CC(C)N1C(=O)C2(OC(=O)NC2=O)c2cc(Cl)ccc21 (stereo not shown) [Product of Example 2]
17

For O=C1NC(=O)C2(O1)C(=O)N(c1ccc(F)cc1)c1ccc(F)cc12 (stereo not shown) [Product of Example 1] , what is its reported inhibition at 0.1 µM?
25

Recorded inhibition at 0.1 µM for CN1C(=O)C2(OC(=O)NC2=O)c2cc(Cl)ccc21 (stereo not shown) [Product of Example 3] , please?
10

Please look up its inhibition at 0.1 µM: O=C1NC(=O)C2(O1)C(=O)N(Cc1ccc(Cl)cc1)c1ccc(Cl)cc12 (stereo not shown) [Product of Example 4]
60
